// data source = PubChem BioAssay (NCI)

tested on: SW-620 colon; experiment: NCI-60 one-dose screen, 48 h; conditions: 10 µM unless noted
Compounds without any hit were thinned out: in the full panel of roughly 83,000, 20% have a hit. Active and inactive are the calls of the source. The calls were made as follows: active = growth percent below 10; inactive = the rest.
Possible outcomes: active, inactive

{"compound": "COC(=O)/C(=C\\c1c(C)[nH]c2ccccc12)S(=O)(=O)c1ccccc1", "class": "inactive"}
{"compound": "O=C(Nc1ccc(I)cc1F)c1cc(Br)ccc1O", "class": "active"}
{"compound": "O=C(Nc1ccc(F)c(Cl)c1)Nc1ccc(Cl)c(Cl)c1", "class": "inactive"}
{"compound": "COc1cc(NC(=O)CCSc2nc3ccccc3c(=O)n2Cc2ccccc2)cc(OC)c1OC", "class": "inactive"}
{"compound": "O=C(NC1CCCCC1)C(c1cccs1)N(CCc1ccccc1)C(=O)c1ccco1 (stereo unspecified)", "class": "inactive"}
{"compound": "Nc1nc(-c2cnccn2)nn1-c1nc2ccccc2s1", "class": "inactive"}
{"compound": "Clc1ccc(Nc2scc3[n+]2CCC3)cc1", "class": "inactive"}
{"compound": "O=C(Cc1ccccc1)NC(c1ccc(Cl)cc1)c1c(O)ccc2ccccc12 (stereo unspecified)", "class": "inactive"}
{"compound": "CC(C)[C@H](NC(=O)Cn1cc(C(=O)O)nn1)C(=O)O", "class": "inactive"}
{"compound": "CCCCN1CCN(c2ccc3nc(-c4ccc5nc(-c6ccc(OC)c(OC)c6)[nH]c5c4)[nH]c3c2)CC1", "class": "active"}
{"compound": "COc1ccc(/C(C#N)=C/c2nc3c(N4CCOCC4)nc(Cl)nc3n2C)cc1OC", "class": "active"}
{"compound": "COc1ccc(/C=C/C(=O)c2ccc(Nc3nc(NCCO)nc(Nc4ccc(Cl)cc4)n3)cc2)cc1", "class": "inactive"}
{"compound": "O=NN(Cc1cccnc1)C(=O)NC1CCCCC1", "class": "inactive"}
{"compound": "COc1ccc(Cn2cc(Cn3cc(C=C4C(=O)NC(=O)NC4=O)c4ccccc43)nn2)cc1", "class": "inactive"}
{"compound": "CC(=O)O[C@@H]1/C=C/C(=O)N[C@@H](C)CCC/C=C/[C@@H]2CCC[C@H]21", "class": "inactive"}
{"compound": "Clc1ccc(Oc2ccc(Nc3ncnc4onc(-c5ccccc5)c34)cc2)c(Cl)c1", "class": "inactive"}
{"compound": "CCCCCCCCCCCCCCn1cc(C2=C(c3coc4ccc(OC)cc34)C(=O)NC2=O)c2ccccc21", "class": "inactive"}
{"compound": "Cc1nc(Nc2cn[nH]c2C(=O)Nc2ccc(CN3CCN(C)CC3)cc2)c2ccsc2n1", "class": "inactive"}
{"compound": "Cn1cc([C@@H]2Nc3ccc4[nH]ncc4c3[C@H]3[C@H]4CCC(C4)[C@H]32)c(C(F)(F)F)n1", "class": "inactive"}
{"compound": "O=C(COc1cc(O)c2c(=O)cc(-c3ccccc3)oc2c1)Nc1ccccc1", "class": "inactive"}
{"compound": "O=c1oc2ccc(Cl)cc2c(=O)n1-c1ccc(F)cc1F", "class": "inactive"}

====

tested on: SK-MEL-5 melanoma; test: NCI-60 one-dose screen, 48 h (100 = growth as untreated, 0 = no growth, -100 = all killed); settings: 10 µM unless noted
About 83,000 compounds went through this panel and 20% of them were active in at least one assay; those are over-represented in the sample as a whole.
# Lookup of reported growth keyed by entry
readoutKind: growth (%)

{"compoundStructureString": "Cc1ccc(OCCCCCCNCCO)c(C)c1", "measuredTarget": "SK-MEL-5 melanoma", "endpointUnit": "%", "quantitativeReadout": -58.3}
{"compoundStructureString": "CC[C@]1(O)C[C@@H]2CN(CCc3c([nH]c4ccccc34)[C@@](C(=O)OC)(c3cc4c(cc3OC)N(C)[C@H]3[C@@](O)(C(=O)OC)[C@H](OC(C)=O)[C@]5(CC)C=CCN6CC[C@]43[C@@H]65)C2)C1", "measuredTarget": "SK-MEL-5 melanoma", "endpointUnit": "%", "quantitativeReadout": -54.6}
{"compoundStructureString": "O=C(/C=C/c1ccccc1)c1ccc(Nc2nc(NCCO)nc(Nc3ccc(Cl)cc3)n2)cc1", "measuredTarget": "SK-MEL-5 melanoma", "endpointUnit": "%", "quantitativeReadout": 80.2}
{"compoundStructureString": "O=c1oc2ccc(Cl)cc2c(=O)n1-c1ccc(Cl)cc1F", "measuredTarget": "SK-MEL-5 melanoma", "endpointUnit": "%", "quantitativeReadout": -87}

====

tested on: PC-3 prostate; test: NCI-60 one-dose screen, 48 h; details: 10 µM unless noted
About 83,000 compounds went through this panel and 20% of them were active in at least one assay; those are over-represented in the sample as a whole. The source made the active and inactive calls. Rule for the calls: active = growth percent below 10; inactive = the rest.
Possible outcomes: YES = active, NO = inactive

{"compound": "OC(c1ccccc1)c1nnc(SCc2ccccc2)n1Cc1ccccc1 (stereo unspecified)", "class": "NO"}
{"compound": "CCOc1cc2c(cc1OCC)C(c1cc(C)c(O)c(C)c1)NCC2 (stereo unspecified)", "class": "NO"}
{"compound": "COc1cc(CNC(=O)c2ccsc2Nc2ccnc(C(F)(F)F)c2)ccc1O", "class": "NO"}
{"compound": "COc1ccc2c(c1)C=C1CSCC3=Cc4cc(OC)ccc4OC13O2", "class": "NO"}
{"compound": "Nc1nc(-c2cnccn2)nn1-c1nc2ccccc2s1", "class": "NO"}
{"compound": "O=c1oc2ccc(Br)cc2c(=O)n1-c1ccc(Br)cc1F", "class": "YES"}
{"compound": "CN1C(=O)N(C)C2C1NN=c1s/c(=C\\c3c[nH]c4ccccc34)c(=O)n12 (stereo unspecified)", "class": "NO"}
{"compound": "O=c1oc2ccc(I)cc2c(=O)n1-c1ccc(Br)cc1F", "class": "YES"}
{"compound": "CCN(CC)CCCNc1ccnc2cc3ccccc3cc12", "class": "NO"}
{"compound": "CCOc1ccc2c(c1)CN(Cc1ccc(Cl)cc1)CO2", "class": "NO"}
{"compound": "COc1cc2nc(-c3cccc4cccnc34)nc(NC3CCN(Cc4ccccc4)CC3)c2cc1OC", "class": "YES"}

====

Recorded growth by entry
system: OVCAR-8 ovarian; experiment: NCI-60 one-dose screen, 48 h (100 = growth as untreated, 0 = no growth, -100 = all killed); settings: 10 µM unless noted
About 83,000 compounds went through this panel and 20% of them were active in at least one assay; those are over-represented in the sample as a whole.

{"compound": "O=c1oc2ccc(I)cc2c(=O)n1-c1ccc(F)cc1F", "endpointUnit": "%", "growth": 12.5}
{"compound": "CCn1c(SCC(=O)Nc2cc(C(F)(F)F)ccc2Cl)nc2ccccc2c1=O", "endpointUnit": "%", "growth": 60.9}
{"compound": "CCCSC1=NC2C(N(CC)C(=O)N2CC)N1/N=C/C=C/c1ccccc1[N+](=O)[O-] (stereo not given)", "endpointUnit": "%", "growth": 33.7}
{"compound": "O=c1oc2ccc(I)cc2c(=O)n1-c1ccc(Cl)cc1F", "endpointUnit": "%", "growth": 8.33}
{"compound": "COc1ccccc1CNC(=O)C1c2ccccc2C(=O)N(CC(C)C)C1c1cccs1 (stereo not given)", "endpointUnit": "%", "growth": 50.5}

====

test system: K-562 leukemia; experiment: NCI-60 one-dose screen, 48 h; conditions: 10 µM unless noted
The panel holds about 83,000 compounds, 20% with a hit somewhere; the sample as a whole holds those more often. Calls of active or inactive are those of the source. How the source made its calls: active means growth percent below 10; inactive means the rest.
Labels: active, inactive

{"compound": "CNCCNc1nc2ccccc2c2c(=O)c3cccc(C)c3sc12", "class": "active"}
{"compound": "COC(=O)/C(CCC=C(C)C)=C1\\[C@@H](OC(C)=O)C[C@@]2(C)[C@H]1C[C@@H](O)[C@H]1[C@@]3(C)CC[C@H](NC(=O)c4cnccn4)[C@@H](C)[C@@H]3CC[C@@]12C", "class": "inactive"}
{"compound": "COc1ccc(/C=C2\\N=C(c3ccccc3)N(c3ccc(-c4nc5ccc(C)cc5s4)cc3)C2=O)cc1", "class": "inactive"}
{"compound": "CCOC(=O)c1c(Cl)c2c(n1Cc1ccccc1)-c1oncc1CCC2", "class": "inactive"}
{"compound": "CCOC(=O)C1(Cc2ccccc2)CCN(Cc2cccc(OC)c2O)CC1", "class": "active"}
{"compound": "O=C(N/N=C/c1ccccc1O)C(=O)Nc1ccc(F)cc1", "class": "inactive"}
{"compound": "COc1ccc2c(c1)C=C1CSCC3=Cc4cc(OC)ccc4OC13O2", "class": "inactive"}
{"compound": "Cc1ccccc1CNC(=O)C1CN(c2ccc(Cl)cc2)N(c2ccc(Cl)cc2)C1=O (stereo not drawn)", "class": "inactive"}
{"compound": "O=Nc1c(O)ccc2ccccc12.O=Nc1c(O)ccc2ccccc12.O=Nc1c([O-])ccc2ccccc12.[Fe+3]", "class": "inactive"}
{"compound": "CC[C@]1(O)C[C@@H]2CN(CCc3c([nH]c4ccccc34)[C@@](C(=O)OC)(c3cc4c(cc3OC)N(C)[C@H]3[C@@](O)(C(=O)OC)[C@H](OC(=O)CCCBr)[C@]5(CC)C=CCN6CC[C@]43[C@@H]65)C2)C1", "class": "active"}
{"compound": "Cc1cc2c(c(C)c1Cl)C(=O)/C(=C/c1cccc([N+](=O)[O-])c1)O2", "class": "inactive"}
{"compound": "COc1cc(NC(=O)CCSc2nc3ccccc3c(=O)n2Cc2ccccc2)cc(OC)c1OC", "class": "inactive"}
{"compound": "CC[C@@H](C)[C@H](NC(=O)Cn1cc(CNC(=O)[C@@H](NC(=O)OCc2ccccc2)C(C)C)nn1)C(=O)O", "class": "inactive"}
{"compound": "Nc1ccc(-c2nc3cc(Oc4ccc(Oc5ccc6[nH]c(-c7ccc(N)cc7)nc6c5)cc4)ccc3[nH]2)cc1", "class": "inactive"}
{"compound": "COc1cc2nc(NC3CCC3)nc(NC3CCN(C(C)C)CC3)c2cc1OC", "class": "active"}
{"compound": "CCN(CC)CCCNc1ccnc2cc3ccccc3cc12", "class": "inactive"}
{"compound": "O=c1oc2ccc(Br)cc2c(=O)n1-c1ccc(I)cc1F", "class": "active"}
{"compound": "CCN1C(=O)N(CC)C2Nn3c(s/c(=C\\c4ccccc4F)c3=O)=NC21 (stereo not drawn)", "class": "inactive"}
